# Tested on: Aedes aegypti (Orlando strain) females
# EXPERIMENT DESCRIPTION: Biting assay (mouse-in-cage)
# Type: in vivo
# Set-up: key: Actual (vs. saline) / Difference between medians: Hodges-Lehmann (vs. saline): differences in percent biting (blood-fed/total females, %)
# CONDITION INFO: fed 1 μM
Form field: Difference between medians: Actual (vs. saline) (one value per entry).
Could you respond with only the numeric value?

Here are 3 compounds together with their reported answers.
{"columns": ["SMILES ENTRY", "QUANTITATIVE RESULT"],
 "data": [
  ["Cc1nc(NC(=N)N)nc2cc(OCc3ccc(OC(F)F)cc3)ccc12", -19.9],
  ["CNc1nc(NC(=N)N)nc2cc(OCC3CCOCC3)ccc12", -21.9],
  ["Cc1nc(NC(=N)N)nc2cc(N3CCc4ccccc4C3)ccc12", -18.25]
]}

# input compound: CNc1nc(NC(=N)N)nc2cc(OCc3ccccc3)c(OC)cc12 ; wanted: its Difference between medians: Actual (vs. saline)
-27.4
